Each recorded value in this set is attributed to paper PMC8466554.

Task for the reader: assign each of the following compounds its reported MIC.
Tested on: S.aureus USA300-CAMRSA
Experiment: MIC and MBC microtiter plate assay
Assay type: cell-based, Staphylococcus aureus
Provide the reading as a plain figure in mg/L.

Query string: Given the entry `CN(C)c1ccc(/C=C/c2cccc(/C=C/c3ccc(N(C)C)cc3)[n+]2C)cc1.[I-]` , what MIC was observed with S.aureus USA300-CAMRSA?
Result string: 0.25

Query string: Which MIC is reported with S.aureus USA300-CAMRSA for this entry: `CCCCN(CCCC)c1ccc(-c2ccc(C=C3CCCc4c[n+](CC)ccc43)s2)s1.[I-]` ?
Result string: 2

Query string: Return MIC measured with S.aureus USA300-CAMRSA given this compound: `CC[n+]1ccc2c(c1)CCCC2=Cc1ccc(-c2ccc(Cl)cc2)o1.[I-]`
Result string: 2

Query string: API: value(readout=MIC, system=S.aureus USA300-CAMRSA) for record `C[n+]1ccc(/C=C/c2ccc(-c3cc(Cl)ccc3Cl)o2)cc1.F[P-](F)(F)(F)(F)F`
Result string: 4

Query string: Find MIC (S.aureus USA300-CAMRSA) for the entry `C[n+]1c(/C=C/c2ccc(-c3ccccc3)s2)ccc2ccccc21.[I-]`
Result string: 2

Query string: Field: MIC (S.aureus USA300-CAMRSA). Entry: `CN(C)c1ccc(/C=C/c2ccc3ccccc3[n+]2C)cc1.[I-]`
Result string: 2
